Tested on: vCap Cell
ASSAY PROTOCOL: vCap cell growth inhibition, CellTiter-Glo, 72 h
Type: cell-based
TEST SETTINGS: Homo sapiens, VCaP, 72 h, vCap cells, 72 h culture
Recorded IC50 for the following compounds

Known results for compounds:
1. CC(=O)N1Cc2cc(C3CCN(CC(F)(F)F)C(=O)C3)cc(N3CCCc4cc(-c5cnn(C)c5)c(C(F)F)cc43)c2C1 (stereo not shown) [Compound M001252] ... < 1000 nM
2. CC(=O)N1Cc2cc(C3CC4CCC(C3)N4)cc(N3CCCc4cc(-c5cnn(C)c5)c(C(F)F)cc43)c2C1 (stereo not shown) [Compound M001052] ... > 1000 nM

**Q:** Consider the compound CC(=O)N1Cc2cc(C3CCN(C(=O)c4ccccc4)CC3)cc(N3CCCc4cc(-c5cnn(C)c5)c(C(F)F)cc43)c2C1 [Compound M001081] tested on vCap Cell; state its IC50.
**A:** < 1000 nM

**Q:** Check vCap Cell data and give IC50 for CNC(=O)N1CCc2cc(C3=CCC4(CC3)OCCO4)cc(N3CCCc4cc(-c5cnn(C)c5)c(C(F)F)cc43)c2C1 [Compound M001090] .
**A:** > 1000 nM
